- System: RXF 393
- ASSAY_INFO: NCI tumour cell line growth inhibition, 48 h
The source made the active and inactive calls. No stated cut-off is given here; in the data, active = GI50 up to about 1.1 µM and inactive = higher.
Entries and their measured GI50 follow.

Below, 3 compounds whose answers are already recorded.
CN(C)CCNC(=O)c1cccc2nc(-c3ccccc3)oc12 = 32.2 µM (inactive)
Cn1c(=O)c2nc(SCc3ccccn3)[nH]c2n(C)c1=S = 32.1 µM (inactive)
CCOC(=O)C(=CNc1ccc(NC2=NCC(C)S2)cc1)C(=O)OCC (centres undefined) = 30.5 µM (inactive)

// moving on: another record for GI50
Entry CN(C)/C=N/S(=O)(=O)c1nn2c(C=O)c(-c3cc4ccccc4oc3=O)nc2s1 , system RXF 393: what GI50 was measured?
2.58 µM (inactive)
